- target_desc: human A2A adenosine receptors (Homo sapiens, UniProt P29274)
- Sequence (P29274 whole entry): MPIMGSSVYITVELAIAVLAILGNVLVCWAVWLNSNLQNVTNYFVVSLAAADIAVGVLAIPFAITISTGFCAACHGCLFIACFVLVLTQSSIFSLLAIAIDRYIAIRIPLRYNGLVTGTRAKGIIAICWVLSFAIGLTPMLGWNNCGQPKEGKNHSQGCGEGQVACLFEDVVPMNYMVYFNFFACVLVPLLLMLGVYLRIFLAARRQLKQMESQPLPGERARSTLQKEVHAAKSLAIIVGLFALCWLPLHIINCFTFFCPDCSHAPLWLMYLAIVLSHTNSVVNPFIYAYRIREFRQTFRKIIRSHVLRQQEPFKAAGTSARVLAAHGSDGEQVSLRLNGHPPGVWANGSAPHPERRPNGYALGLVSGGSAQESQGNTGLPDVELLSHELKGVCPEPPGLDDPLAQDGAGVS
- assay_notes: Competitive radioligand binding, [3H]ZM241385, HEK-hA2AAdoR membranes
- experimental_conditions: pKi ± SEM, HEK-hA2AAdoR
readout_type: Ki

### Prompt Entry under review: Nc1nc(-c2cnn(Cc3ccccc3)c2)nc2c1ncn2C1O[C@@H](CO)[C@H](O)[C@@H]1O (stereo partly shown) . Reported Ki?
### Response 13.5 µM

====

- System: rat isolated perfused heart
- assay_notes: Coronary conductance / coronary perfusion pressure in isolated perfused rat hearts
- experimental_conditions: Rattus norvegicus; read-out: EC50, Coronary Conductance (Rat Isolated Heart)
readout_type: EC50 (nM)
Return type: number; implicit unit nM.

### Prompt Entry under review: CCNC(=O)[C@H]1O[C@@H](n2cnc3c(N)nc(NCCc4ccc(CCC(=O)O)cc4)nc32)[C@H](O)[C@@H]1O [CGS21680, reference compound] . Reported EC50?
### Response 0.54

### Prompt Entry under review: CNC(=O)c1cnn(-c2nc(N)c3ncn(C4O[C@@H](CO)[C@H](O)[C@@H]4O)c3n2)c1 (stereo partly drawn) [CVT-3146] . Reported EC50?
### Response 6.4

### Prompt Entry under review: Nc1nc(N/N=C/C2CCCCC2)nc2c1ncn2[C@@H]1O[C@H](CO)[C@@H](O)[C@H]1O [WRC0470, reference compound] . Reported EC50?
### Response 0.62
